Sourced from paper PMC5612953

Below, each entry is listed with its recorded pKd.
Target: T1, phospho-MOB1(K104E/K105E), full length, recombinant (human, UniProt Q9H8S9 1-216, K104E | K105E, phosphorylated in vitro by MST2 (residues 2-308); the paper names Thr12 and Thr35 as the MST1/2 phosphorylation sites of MOB1)
T1 sequence: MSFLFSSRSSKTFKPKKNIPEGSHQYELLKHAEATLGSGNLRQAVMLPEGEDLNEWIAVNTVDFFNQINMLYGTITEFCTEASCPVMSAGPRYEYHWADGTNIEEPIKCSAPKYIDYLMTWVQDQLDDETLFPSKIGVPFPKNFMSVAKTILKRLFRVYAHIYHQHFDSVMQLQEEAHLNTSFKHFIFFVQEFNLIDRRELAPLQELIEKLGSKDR
Assay: ITC; phosphorylated MOB1
// pKd is dimensionless: -log10 of concentration (M)

Here are 2 binders together with their reported answers.
- human LATS2 (residues 603-666), NTR (domain or fragment, UniProt Q9NRM7 603-666, looked up, human LATS2, residues 603-666 (NTR), codon-optimized synthetic gene; also called NTR of LATS2; source: E. coli BL21(DE3), purified (Ni-NTA)) KFFMEQHVENVIKTYQQKVNRRLQLEQEMAKAGLCEAEQEQMRKILYQKESNYNRLKRAKMDKS: 5.08
- human LATS1 (residues 640-703), NTR (domain or fragment, UniProt O95835 640-703, looked up, human LATS1, residues 640-703 (NTR); also called LATS1 (640-703); LATS1 wild-type; source: E. coli BL21(DE3), purified (Ni-NTA)) KFFMEQHVENVLKSHQQRLHRKKQLENEMMRVGLSQDAQDQMRKMLCQKESNYIRLKRAKMDKS: 4.79

response.value for NDR1 (24-87, Y31V) (domain or fragment) KVTLENFVSNLIAQHEEREMRQKKLEKVMEEEGLKDEEKRLRRSAHARKETEFLRLKRTRLGLE (field: pKd) = 5.63
